target: T1, mouse Ig1,2 TrkA (recombinant D4-D5 domain of murine TrkA receptor) (mouse, UniProt Q3UFB7 193-413); assay: SPR (Biacore X-100); scFv immobilised on CM5 chip, mouse Ig1,2 TrkA injected
T1 construct: also called mTrkA Ig1,2
T1 sequence (Q3UFB7 other isoform, or with tags, fused parts or gaps limits assumed): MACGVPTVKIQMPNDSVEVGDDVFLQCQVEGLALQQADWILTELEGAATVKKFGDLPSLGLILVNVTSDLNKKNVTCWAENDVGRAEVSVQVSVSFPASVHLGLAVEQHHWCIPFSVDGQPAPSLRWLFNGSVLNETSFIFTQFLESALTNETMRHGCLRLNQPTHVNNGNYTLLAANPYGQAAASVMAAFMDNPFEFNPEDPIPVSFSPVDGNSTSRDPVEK
Could you please report measured Kd for the items listed next?
Give bare numbers, in nM.

For orientation, consider the following solved cases.
anti-TrkA scFv CRB0082 (scFv, From hSPLINT_09 selection) scFv: SYVLTQPPSVSVAPGTTARLSCEATKIGSQRLHWYQQKPGQAPVMVISFDSDRPSGIPDRFSGSRSGNTATLTISGVEAGDEADYYCNSRDSSGYHLVFGGGTKLTVLSGGSTSGSGKPGSGEGSSGTQVQLQQSGPGLVKPSQTLSLTCAISGDSVSSFTVAWNWIRQSPSRGLERLGRTYRRSKDYAEYMRSRLTINADTSKNQLSLQLDSVTPDDTAVYYCARGQNSAFDLWGQRTMVTVSS = 131
anti-TrkA scFv CRB0069 (scFv, From hSPLINT_09 selection) scFv: QPGLTQPPSASGTPGQRVTISCTGSSSNVGAGYTVHWYQQLPGTAPTLLIYDNNNRPSGVPDRFSGSRSGTSASLAITGLRAEDEADYYCQSYDRSRVYVFGTGTKLTVLSGGSTSGSGKPGSGEGSSGTQVQLQQSGPGLVKPSQTLSLTCAISGDSVSSNSAAWNWIRQSPSRGLERLGRTYYRSKWYNDYAESVKSRIIINSGTSKNQFSLHLNSVTPEDTAVYYCGRAKDGWYDAFDIWGQGTTVTVSS = 1.67

Q: Return the recorded Kd value; entry: anti-TrkA scFv CRB0022 (scFv, From mSPLINT selection) scFv: DIVLTQSPALMSASPGEKVTMTCSASSSVSYMYWYQQKPRSSPKPWIYLTSNLASGVPARFSGSGSGTSYSLTISSMEAEDAATYYCQQWSSNPYTFGGRTRLEIKPSGGSTSGSGKPGSGEDSSGAQVQLQQSGAELVKPGASVELSCTASGFNIKDTYMHWVKQRPEQGLEWIGGIDPANGNTIYVPKFQGKATITADTSSNTAYLQLSSLTSEDTAVYYCARGGYDFDYAMDYWGQGTSVTVSS
Ans: 1.16

Hello, the source for this data is patent US20160244529A1, in case you need it.
